# TEST_METHOD_NOTES: in vivo
# CONDITION_CONTEXT: rat, in vivo, iv
Reported RAT IV CL values for a set of compounds
OBSERVATION_TYPE: RAT IV CL (mL/min/kg)

COMPOUND	MEASURED_VALUE
COC(=O)N[C@H](C(=O)N[C@@H](Cc1ccc(C#Cc2ccc(N3CC4CCC(C3)N4C3COC3)nc2)cc1)[C@@H](O)CN(Cc1ccc(-c2cnn(C(F)F)c2)cc1)NC(=O)[C@@H](NC(=O)OC)C(C)(C)C(F)(F)F)C(C)(C)C(F)(F)F	7
COC(=O)N[C@H](C(=O)N[C@@H](Cc1ccc(C#Cc2ccc(N3CC4CCC(C3)N4C3COC3)nc2)cc1)[C@@H](O)CN(Cc1c(F)cc(-c2ccn(CC(F)F)n2)cc1F)NC(=O)[C@@H](NC(=O)OC)C(C)(C)C(F)(F)F)C(C)(C)C(F)(F)F	7.5
COC(=O)N[C@H](C(=O)N[C@@H](Cc1ccc(C#Cc2ccc(N3CC4CCC(C3)N4C3COC3)nc2)cc1)[C@@H](O)CN(Cc1c(F)cc(-c2ccccn2)cc1Cl)NC(=O)[C@@H](NC(=O)OC)C(C)(C)C(F)(F)F)C(C)(C)C(F)(F)F	6.5
COC(=O)N[C@H](C(=O)N[C@@H](Cc1ccc(C#Cc2ccc(N3CC4CCC(C3)N4C3COC3)nc2)cc1)[C@@H](O)CN(Cc1c(F)cc(-c2ncccn2)cc1F)NC(=O)[C@@H](NC(=O)OC)C(C)(C)C(F)(F)F)C(C)(C)C(F)(F)F	8
COC(=O)N[C@H](C(=O)N[C@@H](Cc1ccc(C#Cc2ccc(N3CC4COCC(C3)N4C3COC3)nc2)cc1)[C@@H](O)CN(Cc1c(F)cc(-c2ccn(C(F)F)n2)cc1F)NC(=O)[C@@H](NC(=O)OC)C(C)(C)C(F)(F)F)C(C)(C)C(F)(F)F	6.5
COC(=O)N[C@H](C(=O)N[C@@H](Cc1ccccc1)[C@@H](O)CN(Cc1ccc(-c2ccccn2)cc1)NC(=O)[C@@H](NC(=O)OC)C(C)(C)C)C(C)(C)C [atazanavir, reference compound]	45
COC(=O)N[C@H](C(=O)N[C@@H](Cc1ccc(C#Cc2ccc(N3CC4CCC(C3)N4C3COC3)nc2)cc1)[C@@H](O)CN(Cc1c(F)cc(-c2ccccn2)cc1F)NC(=O)[C@@H](NC(=O)OC)C(C)(C)C(F)(F)F)C(C)(C)C(F)(F)F	6.5
COC(=O)N[C@H](C(=O)N[C@@H](Cc1ccc(C#Cc2ccc(N3CC4CCC(C3)N4C3COC3)nc2)cc1)[C@@H](O)CN(Cc1c(F)cc(-c2cnn(C(F)F)c2)cc1F)NC(=O)[C@@H](NC(=O)OC)C(C)(C)C(F)(F)F)C(C)(C)C(F)(F)F	15

* * *

# CONDITION_CONTEXT: human liver microsomes 0.5 mg/mL, 1 uM compound, NADPH
Catalogue of Human Pred Cl. values

RECORD_SMILES	Human Pred Cl.
COC(=O)N[C@H](C(=O)N[C@@H](Cc1ccc(C#Cc2cnc(N3CCN(C4COC4)CC3)nc2)cc1)[C@@H](O)CN(Cc1c(F)cc(-c2ccn(C(F)F)n2)cc1F)NC(=O)[C@@H](NC(=O)OC)C(C)(C)C(F)(F)F)C(C)(C)C(F)(F)F	0.13 L/H/kg
CC(C)([C@H](NC(=O)OC1CC1)C(=O)N[C@@H](Cc1ccc(-c2cnn(C(F)F)c2)cc1)[C@@H](O)CN(Cc1c(F)cc(-c2cnn(C(F)F)c2)cc1F)NC(=O)[C@@H](NC(=O)OC1CC1)C(C)(C)C(F)(F)F)C(F)(F)F	0.18 L/H/kg

* * *

Attribute: Rat. Pred. Cl.
# CONDITION_CONTEXT: rat, microsomes

COMPOUND	RELATION_OPERATOR	Rat. Pred. Cl. [L/H/kg]
COC(=O)N[C@H](C(=O)N[C@@H](Cc1ccc(-c2ccc(N3CC4CCC(C3)N4C3COC3)nc2)cc1)[C@@H](O)CN(Cc1c(F)cc(-c2ccn(C)n2)cc1F)NC(=O)[C@@H](NC(=O)OC)C(C)(C)C(F)(F)F)C(C)(C)C(F)(F)F [Example 207]	=	0.92
COC(=O)N[C@H](C(=O)N[C@@H](Cc1ccc(C#Cc2ccc(N3CC4CCC(C3)N4C3COC3)nc2)cc1)[C@@H](O)CN(Cc1c(F)cc(-c2nnc(C)o2)cc1F)NC(=O)[C@@H](NC(=O)OC)C(C)(C)C(F)(F)F)C(C)(C)C(F)(F)F [Example 11]	=	0.18
COC(=O)N[C@H](C(=O)N[C@@H](Cc1ccc(C#Cc2ccc(N3CC4CCC(C3)N4C3COC3)nc2)cc1)[C@@H](O)CN(Cc1ccc(-c2ccn(C(F)F)n2)cc1)NC(=O)[C@@H](NC(=O)OC)C(C)(C)C(F)(F)F)C(C)(C)C(F)(F)F [Example 158]	=	0.22
COC(=O)N[C@H](C(=O)N[C@@H](Cc1ccc(C#Cc2ccc(N3CC4CCC(C3)N4C3COC3)nc2)cc1)[C@@H](O)CN(Cc1c(F)cc(C2CCOCC2)cc1F)NC(=O)[C@@H](NC(=O)OC)C(C)(C)C(F)(F)F)C(C)(C)C(F)(F)F [Example 82]	=	0.44
COC(=O)N[C@H](C(=O)N[C@@H](Cc1ccc(C#Cc2cnc(N3CC4CCC(C3)N4C3COC3)nc2)cc1)[C@@H](O)CN(Cc1c(F)cc(-c2ncccn2)cc1F)NC(=O)[C@@H](NC(=O)OC)C(C)(C)C(F)(F)F)C(C)(C)C(F)(F)F [Example 89]	<	0.18
COC(=O)N[C@H](C(=O)N[C@@H](Cc1ccc(C#Cc2ccc(N3CC4CCC(C3)N4C3COC3)nc2)cc1)[C@@H](O)CN(Cc1c(F)cc(-c2ccc(C)cn2)cc1F)NC(=O)[C@@H](NC(=O)OC)C(C)(C)C(F)(F)F)C(C)(C)C(F)(F)F [Example 229]	=	0.26
COC(=O)N[C@H](C(=O)N[C@@H](Cc1ccc(C#Cc2ccc(N3CC4CCC(C3)N4S(C)(=O)=O)nc2)cc1)[C@@H](O)CN(Cc1c(F)cc(-c2cnn(C(F)F)c2)cc1F)NC(=O)[C@@H](NC(=O)OC)C(C)(C)C(F)(F)F)C(C)(C)C(F)(F)F [Example 70]	<	0.18
COC(=O)N[C@H](C(=O)N[C@@H](Cc1ccc(C#Cc2ccc(N3CC4CCC(C3)N4C3COC3)nc2C)cc1)[C@@H](O)CN(Cc1c(F)cc(-c2ccccn2)cc1F)NC(=O)[C@@H](NC(=O)OC)C(C)(C)C(F)(F)F)C(C)(C)C(F)(F)F [Example 78]	<	0.18

* * *

# reported Rat. Pred. Cl.; entries follow
# CONDITION_CONTEXT: rat, microsomes

RECORD_SMILES	Rat. Pred. Cl.
COCCN1C2CCC1CN(c1ccc(C#Cc3ccc(C[C@H](NC(=O)[C@@H](NC(=O)OC)C(C)(C)C(F)(F)F)[C@@H](O)CN(Cc4c(F)cc(-c5ccn(C(F)F)n5)cc4F)NC(=O)[C@@H](NC(=O)OC)C(C)(C)C(F)(F)F)cc3)cn1)C2	0.5 L/H/kg
COC(=O)N[C@H](C(=O)N[C@@H](Cc1ccc(C#Cc2ccc(N3CC4CC(C3)N4C3COC3)nc2)cc1)[C@@H](O)CN(Cc1c(F)cc(-c2ccccn2)cc1F)NC(=O)[C@@H](NC(=O)OC)C(C)(C)C(F)(F)F)C(C)(C)C(F)(F)F	0.7 L/H/kg
COC(=O)N[C@H](C(=O)N[C@@H](Cc1ccc(C#Cc2ccc(N3CC4CC(C3)N4C3COC3)nc2)cc1)[C@@H](O)CN(Cc1c(F)cc(-c2ccn(C(F)F)n2)cc1F)NC(=O)[C@@H](NC(=O)OC)C(C)(C)C(F)(F)F)C(C)(C)C(F)(F)F	0.75 L/H/kg
COC(=O)N[C@H](C(=O)N[C@@H](Cc1ccc(-c2cnc(N3CC4CCC(C3)N4C3COC3)nc2)cc1)[C@@H](O)CN(Cc1c(F)cc(-c2ncccn2)cc1F)NC(=O)[C@@H](NC(=O)OC)C(C)(C)C(F)(F)F)C(C)(C)C(F)(F)F	0.49 L/H/kg
COC(=O)N[C@H](C(=O)N[C@@H](Cc1ccc(-c2ccc(N3CC4CCC(C3)N4C3COC3)nc2)cc1)[C@@H](O)CN(Cc1c(F)cc(-c2ccn(C3CC3)n2)cc1F)NC(=O)[C@@H](NC(=O)OC)C(C)(C)C(F)(F)F)C(C)(C)C(F)(F)F	0.48 L/H/kg
COC(=O)N[C@H](C(=O)N[C@@H](Cc1ccc(C#Cc2ccc(N3CC4CCC(C3)N4C3COC3)nc2)cc1)[C@@H](O)CN(Cc1c(F)cc(-c2ccccn2)cc1Cl)NC(=O)[C@@H](NC(=O)OC)C(C)(C)C(F)(F)F)C(C)(C)C(F)(F)F	0.2 L/H/kg
COC(=O)N[C@H](C(=O)N[C@@H](Cc1ccc(C#Cc2ccc(N3CC4CCC(C3)N4C3COC3)nc2)cc1)[C@@H](O)CN(Cc1c(F)cc(-c2cnn(C(F)F)c2)cc1F)NC(=O)[C@@H](NC(=O)OC)C(C)(C)C(F)(F)F)C(C)(C)C(F)(F)F	<0.18 L/H/kg
COC(=O)N[C@H](C(=O)N[C@@H](Cc1ccc(C#Cc2cnc(N3CC4CCC(C3)N4C3COC3)nc2)cc1)[C@@H](O)CN(Cc1c(F)cc(-c2cnn(C(F)F)c2)cc1F)NC(=O)[C@@H](NC(=O)OC)C(C)(C)C(F)(F)F)C(C)(C)C(F)(F)F	<0.18 L/H/kg

Hey, just so you know, these numbers are from patent US10294234B2.
